Hello, the source for this data is patent US20140057953A1, in case you need it.

Target: 17β-HSD1 (Homo sapiens, UniProt P14061)
Construct: For the partial purification of 17β-HSD1, the cytosolic fraction was precipitated with ammonium sulfate
Sequence (P14061 1-328): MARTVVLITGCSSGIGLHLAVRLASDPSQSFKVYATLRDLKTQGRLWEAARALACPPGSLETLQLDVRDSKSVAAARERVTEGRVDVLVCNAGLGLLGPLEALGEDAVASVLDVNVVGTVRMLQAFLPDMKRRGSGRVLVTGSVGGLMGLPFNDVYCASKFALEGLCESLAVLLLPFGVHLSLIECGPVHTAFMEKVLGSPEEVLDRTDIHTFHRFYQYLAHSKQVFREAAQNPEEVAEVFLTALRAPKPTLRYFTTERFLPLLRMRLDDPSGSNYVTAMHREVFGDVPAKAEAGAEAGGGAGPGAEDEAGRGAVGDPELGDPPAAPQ
Experiment: Inhibition of 17β-HSD1 in cell-free assay
Conditions: human placenta, cytosolic fraction, substrate E1 500 nM, cofactor NADH 500 μM

{"columns": ["Mol Smiles", "IC50"],
 "data": [
  ["COc1cccc(CN(C)C(=O)c2ccc(-c3cccc(C)c3)cc2)c1", "> 100 µM"],
  ["COc1cccc(CN(C)C(=O)c2ccc(-c3cccc(OC)c3)s2)c1", "> 100 µM"],
  ["COc1ccc(-c2ccc(C(=O)N(C)Cc3cccc(O)c3)s2)cc1", "> 40 µM"],
  ["COc1cccc(N(C)C(=O)c2ccc(-c3ccc(OC)c(F)c3)s2)c1", "> 40 µM"],
  ["CN(Cc1cccc(O)c1)C(=O)c1ccc(-c2cccc(O)c2)s1", "> 5.45 µM"],
  ["CN(Cc1cccc(O)c1)C(=O)c1ccc(-c2cccc(F)c2)s1", "3.15 µM"],
  ["COc1cccc(N(C)C(=O)c2ccc(-c3ccc(F)c(OC)c3)s2)c1", "> 100 µM"],
  ["COc1cccc(-c2cccc(C(=O)N(C)c3cccc(OC)c3)c2)c1", "> 60 µM"]
]}
